# Tested on: MV4-11 cells
# PROTOCOL_DETAILS: Cell proliferation assay (ATPlite)
# Assay type: cell-based
# ASSAY_CONTEXT: Homo sapiens, 120 h; MV4-11 cells, five days; read-out: GI MV411 EC50
# Description: MV4-11 cells were seeded into a 96-well plate at 1,000 cells/well in 150 μl medium (Alpha-MEM containing 10% FBS, 100 μg/ml Normocin, and 50 μg/ml Gentamycin, Invitrogen). A HP D300 digital dispenser was used to dose cells with DMSO or test compounds across a 10-point range of concentrations (high dose of 10 μM), and cultures were grown in a humidified 5% CO2 incubator at 37° C. […] Luminescent signal was measured using an Envision plate reader equipped with a US-Luminescence detector.
pEC50: −log10 of the molar value.
Returns label 1 if the recorded pEC50 is greater than or equal to 7, and label 0 otherwise.

Example results:
[in] Quick check: does C[C@@H]1CN(c2cc(F)c(-c3cnc(N4CCOCC4)c(C#N)c3)c(F)c2NC(=O)c2c[nH]c(=O)cc2C(F)(F)F)C[C@H](C)N1C have pEC50 greater than or equal to 7?
[out] label 1

[in] For this compound, is measured pEC50 7 or higher? C[C@@H]1CN(c2ncc(-c3c(F)cc(N4C[C@@H](C)N(C)[C@@H](C)C4)c(NC(=O)c4c[nH]c(=O)cc4C(F)(F)F)c3F)cn2)C[C@@H](C)O1
[out] label 1

[in] Check if pEC50 >= 7 (inclusive). Item: C[C@H]1CN(c2cc(F)c(C3=CCCN(C(=O)OC4CC(F)(F)C4)C3)c(F)c2NC(=O)c2c[nH]c(=O)cc2C(F)(F)F)CCN1C
[out] label 0

More entries:
[in] Confirm if pEC50 reported for the compound C[C@@H]1CN(c2nc(-c3c(F)cc(N4CCN(C)[C@@H](C)C4)c(NC(=O)c4c[nH]c(=O)cc4C(F)(F)F)c3F)cs2)C[C@H](C)O1 is 7 or above.
[out] label 0

[in] Hi, just wondering whether C[C@@H]1CN(c2cc(F)c(-c3cnc(N4CCOCC4)nc3)c(F)c2NC(=O)c2c[nH]c(=O)cc2C(F)(F)F)C[C@H](C)N1C shows pEC50 of 7 or higher.
[out] label 1

====

# TARGET_OR_TEST_SYSTEM: WDR5 (Homo sapiens, UniProt P61964)
# PROTOCOL_DETAILS: Surface Plasmon Resonance (SPR) assay
# Assay type: binding
# Parameters: Full length WDR5 with an N-terminal His tag and C-terminal AviTag; His tag (N); made in house; host or cells: E. coli
# ASSAY_CONTEXT: read-out: SPR Kd
Collected pKd values appear next to each entry.
Please treat pKd as minus the base-10 logarithm of the molar concentration.

Item C[C@@H]1CN(c2cc(F)c(-c3cnc(N4CCO[C@@H](C)C4)nc3)c(F)c2NC(=O)c2c[nH]c(=O)cc2C(F)(F)F)C[C@H](C)N1C [Example 101] ; assay system WDR5 (Homo sapiens, UniProt P61964); pKd reported as 8.21

Given the compound COc1cc(N2CCC=C(c3c(F)cc(N4C[C@@H](C)N(C)[C@@H](C)C4)c(NC(=O)c4c[nH]c(=O)cc4C(F)(F)F)c3F)C2)ncn1 [Example 142] and test system WDR5 (Homo sapiens, UniProt P61964), the measured pKd is 8.75

# evaluate next
The measured pKd that C[C@@H]1CN(c2ccc(-c3c(F)cc(N4CCN(C)[C@@H](C)C4)c(NC(=O)c4c[nH]c(=O)cc4C(F)F)c3F)cn2)C[C@H](C)O1 [Example 182] showed for WDR5 (Homo sapiens, UniProt P61964) is 8.94

====

# System: MV4-11 cells
# PROTOCOL_DETAILS: Cell proliferation assay (ATPlite)
# Assay type: cell-based
# ASSAY_CONTEXT: Homo sapiens, 120 h; MV4-11 cells, five days; read-out: GI MV411 EC50
pEC50: −log10 of the molar value.
So basically: pEC50 at 7 or higher? That is condition met. Lower than 7? That is condition not met.

[in] Determine whether measured pEC50 meets or exceeds 7 for C[C@H]1CN(c2cc(F)c(C3=CCN(c4ccnc(C#N)n4)C3)c(F)c2NC(=O)c2c[nH]c(=O)cc2C(F)F)CCN1C
[out] condition met

[in] Test whether the compound C[C@@H]1CN(c2cc(F)c(C3=CCN(C(=O)OC4(C)CCC4)CC3)c(F)c2NC(=O)c2c[nH]c(=O)cc2C(F)(F)F)C[C@H](C)N1C records pEC50 of 7 or higher.
[out] condition met

[in] I'd appreciate it if you could say whether C[C@H]1CN(c2cc(F)c(C3=CCN(c4ccnc(C#N)n4)CC3)c(F)c2NC(=O)c2c[nH]c(=O)cc2C(F)(F)F)CCN1C has pEC50 at least equal to 7.
[out] condition met

We now examine a further compound.
[in] Decide: is the reported value of pEC50 for C[C@@H]1CN(c2cc(F)c(-c3cnc(N4C[C@H](C)O[C@@H](C)C4)nc3)c(F)c2NC(=O)c2c[nH]c(=O)cc2C(F)F)C[C@H](C)N1C equal to or greater than 7?
[out] condition met

====

# TARGET_OR_TEST_SYSTEM: WDR5 (Homo sapiens, UniProt P61964)
# PROTOCOL_DETAILS: Surface Plasmon Resonance (SPR) assay
# Type: binding
# Design: Full length WDR5 with an N-terminal His tag and C-terminal AviTag; His tag (N); made in house; host or cells: E. coli
# ASSAY_CONTEXT: read-out: SPR Kd
Property: pKd; scope: individual compounds
Scale for pKd: -log10 of concentration given in mol/L; no unit attached.

C[C@@H]1CN(c2cc(F)c(-c3cnc(N4C[C@H](C)O[C@@H](C)C4)nc3)c(F)c2NC(=O)c2c[nH]c(=O)cc2C(F)(F)F)C[C@H](C)N1C [Example 88] yielded pKd of 8.60

Measured pKd, CC(C)[C@H]1CN(c2ncc(-c3c(F)cc(N4CCN(C)[C@@H](C)C4)c(NC(=O)c4c[nH]c(=O)cc4C(F)F)c3F)cn2)CCO1 [Example 121] : 8.97

pKd in this record for C[C@@H]1CN(c2ncc(-c3c(F)cc(N4CCN(C)[C@@H](C)C4)c(NC(=O)c4cn(C)c(=O)cc4C(F)(F)F)c3F)cn2)C[C@@H](C)O1 [Example 165] : 9.09

pKd in this record for C[C@@H]1CN(c2ccc(-c3c(F)cc(N4C[C@@H](C)N(C)[C@@H](C)C4)c(NC(=O)c4c[nH]c(=O)cc4C(F)(F)F)c3F)cn2)C[C@H](C)O1 [Example 62] : 8.67

get_value(item= C[C@@H]1CN(c2cc(F)c(C3=CCCN(c4ncccn4)C3)c(F)c2NC(=O)c2c[nH]c(=O)cc2C(F)F)C[C@H](C)N1C [Example 21] , readout=pKd) returns 8.35

***
The compound identified as C[C@@H]1CN(c2cc(F)c(-c3cnc(N4CCO[C@@H](C)C4)nc3)c(F)c2NC(=O)c2cn(C)c(=O)cc2C(F)(F)F)C[C@H](C)N1C [Example 12, formic Acid] registered its pKd at 8.85

====

The entries below come with measured pEC50 values attached.
# Tested on: MV4-11 cells
# PROTOCOL_DETAILS: Cell proliferation assay (ATPlite)
# Format: cell-based
# ASSAY_CONTEXT: Homo sapiens, 120 h; MV4-11 cells, five days; read-out: GI MV411 EC50
API: returns pEC50 as number; meaning -log10 of concentration in mol/L.

Consider the following illustrative entries.
Record for C[C@@H]1CN(c2ncc(-c3c(F)cc(N4CCN(C)[C@@H](C)C4)c(NC(=O)c4ccc(F)cc4C(F)F)c3F)cn2)C[C@@H](C)O1 under target or system MV4-11 cells: pEC50 reported as 7.05

Record for C[C@H]1CN(c2cc(F)c(C3=CCN(c4ncc(C#N)s4)C3)c(F)c2NC(=O)c2c[nH]c(=O)cc2C(F)(F)F)CCN1C under target or system MV4-11 cells: pEC50 reported as 7.15

New cases:
Considering C[C@H]1CN(c2cc(F)c(C3=CCN(c4ncc(F)cn4)CC3)c(F)c2NC(=O)c2c[nH]c(=O)cc2C(F)(F)F)CCN1C , its pEC50 with MV4-11 cells was recorded as 7.28

Let me check: COc1cnc(N2CC=C(c3c(F)cc(N4C[C@@H](C)N(C)[C@@H](C)C4)c(NC(=O)c4c[nH]c(=O)cc4C(F)(F)F)c3F)C2)nc1 , system MV4-11 cells, measured pEC50 is 7.73

Known value: MV4-11 cells pEC50 of the compound C[C@@H]1CN(c2ccc(-c3c(F)cc(N4CCN(C)[C@@H](C)C4)c(NC(=O)c4c[nH]c(=O)cc4C(F)(F)F)c3F)cn2)C[C@H](C)O1 equals 7.49

Given the compound C[C@@H]1CN(c2cc(F)c(C3=CCN(c4ncc(C#N)s4)C3)c(F)c2NC(=O)c2c[nH]c(=O)cc2C(F)(F)F)C[C@H](C)N1C and test system MV4-11 cells, the measured pEC50 is 7.32

The compound COc1cc(N2CC=C(c3c(F)cc(N4CCN(C)[C@@H](C)C4)c(NC(=O)c4c[nH]c(=O)cc4C(F)(F)F)c3F)CC2)ncn1 , tested on MV4-11 cells, showed pEC50 of 7.38

Field pEC50 (MV4-11 cells), entry C[C@H]1CN(c2cc(F)c(C3=CCCN(c4ncc(C#N)s4)C3)c(F)c2NC(=O)c2c[nH]c(=O)cc2C(F)F)CCN1C : 6.77
